Where do these numbers come from? They come from PubChem BioAssay (NCI).

tested on: OVCAR-3 ovarian; experiment: NCI tumour cell line growth inhibition, 48 h; in the data active means GI50 below about 0.43 µM; inactive means the rest
Bench note: report the call from active, inactive

Worked examples, 5 compounds total:
# COMPOUND, ASSIGNED LABEL
rows = [
    ("O=[N+]([O-])c1cc(F)c2cccnc2c1O", "inactive"),
    ("OC(COc1cccc2ccccc12)CN1CCN(c2ccccc2Cl)CC1 (configuration not stated)", "inactive"),
    ("CC(=O)C1(O)Cc2c(O)c3c(c(O)c2C(OC2CC(N)C(O)C(C)O2)C1)C(=O)c1ccccc1C3=O (configuration not stated)", "active"),
    ("O=C(NCCCCOCC#Cc1ccccc1C#CCS(=O)(=O)c1ccccc1)c1cc2ccccc2[nH]1", "inactive"),
    ("C1CC[N-]CC1.CC(=N\\O)/C(C)=N/O.CC(=N\\O)/C(C)=N/O.[CH2-]CCN1CCOCC1.[Co+2]", "inactive"),
]

Each compound tested received a call. Report the one for C=CCCC(=O)N1C=CC(=O)[C@H](O)[C@@H]1/C=C/c1ccccc1 . inactive

Try the compound Cn1ncc(-c2ccc3c(=O)[nH]nc(CN)c3c2)c1-c1c(F)cc2ccccc2c1C#N inactive

Try the compound O=C(Nc1cc(-c2cccnc2)nc(NCCCN2CCOCC2)n1)c1cc(Br)cc(C(F)(F)F)c1 inactive

Try the compound CCOC(=S)SCN1C(=O)c2ccccc2S1(=O)=O active

Try the compound C1C[OH+]CC[OH+]CC[OH+]CC[OH+]CC[OH+]CC[OH+]1.[Cl-].[Nb+5] inactive

Try the compound CCCCOc1ccc(/C=N/Nc2cc(C)nc3ccc(Cl)cc23)cc1 inactive

---

tested on: OVCAR-3 ovarian; test: NCI tumour cell line growth inhibition, 48 h
METRIC NAME: TGI

Below, each entry is followed by its recorded TGI result.
# COMPOUND, ENDPOINT RESULT
records = [
    ("C[n+]1c(N)n(C(=O)OCc2ccccc2)c(=O)c2c1ncn2C(=O)OCc1ccccc1", "> 100 µM"),
    ("CC1CN=C(c2ccc(COc3ccc(C4=NCC(C)N4)cc3)cc2)N1 (stereo unspecified)", "> 100 µM"),
    ("COc1ccccc1NCC(=O)Nn1c(C)nc2ccc(S(=O)(=O)Nc3ccccc3OC)cc2c1=O", "> 100 µM"),
    ("COc1cc2c(cc1OCCCCCOc1cc3c(cc1OC)C(=O)N1CCC[C@H]1CN3)N=C[C@@H]1CCCN1C2=O", "44.7 µM"),
    ("COc1ccc(C(=O)O/N=C2/CCC/C2=C\\c2ccccc2)cc1", "> 100 µM"),
    ("C#CCN(C)C(=O)N(CC#C)N=O", "> 100 µM"),
    ("O=C(/C(=C/c1ccccc1)c1ccccc1)N1c2ccccc2CC1c1c[nH]c2ccccc12 (stereo unspecified)", "89.6 µM"),
    ("CC1CC[C@@]2(OC1)OC1C[C@H]3[C@@H]4CCC5CC(O)CC[C@]5(C)[C@H]4C/C(=N\\N(C)C)[C@]3(C)C1[C@@H]2C (stereo partly specified)", "38.6 µM"),
    ("C[N+](C)(N)c1nc(N)c(C#N)c(C#N)c1C#N", "> 10 µM"),
    ("c1ccc(CCn2cncn2)cc1", "> 100 µM"),
]

Here's the next entry for you.
Query the reported TGI for OVCAR-3 ovarian; item: CC1(C)CC[C@]2(C(=O)O)[C@H](O)C[C@]3(C)C(=CC[C@@H]4[C@@]5(C)CC[C@H](OC6OC(C(=O)O)C(O)C(O)C6O)C(C)(C)[C@@H]5CC[C@]43C)[C@@H]2C1 (stereo partly specified) > 100 µM

---

The following compounds are listed with their measured TGI values.
test system: UO-31 renal; assay: NCI tumour cell line growth inhibition, 48 h
Give the number; µM is assumed, so skip it.

# COMPOUND, READOUT UNITS, ENDPOINT RESULT
rows = [
    ("COc1ccc(C[C@@H]2OC3(C=CC(=O)C=C3)O[C@H]2Cc2ccc(OC)cc2)cc1", "µM", 0.379),
    ("O=C(CCl)Nc1cc(O)c2c(c1)C(=O)c1cccc(O)c1C2=O", "µM", 2.71),
    ("CCCCNC(=S)Nc1nc(C(=O)NNC(=O)c2ccccc2)cs1", "µM", 28.5),
    ("CC1(C)[C@@H](OC(N)=O)C=C[C@]2(C=O)[C@H]3CC[C@]4(C)[C@@H](c5ccc(=O)oc5)[C@@H](Cl)C[C@]4(O)C3=CC[C@@H]12", "µM", 0.0124),
    ("CCOc1cc(C(C)(C)C)ccc1C1=N[C@@](C)(c2ccc(Cl)cc2)[C@@](C)(c2ccc(Cl)cc2)N1C(=O)N1CCN(CCS(C)(=O)=O)CC1", "µM", 1.63),
    ("COc1cc(/C=N\\O)nc(-c2ccccn2)c1", "µM", 3.13),
]

Please report the recorded TGI for N=C(c1cccs1)C1(N2CCCCC2)CCCCC1 . 30.5

Try the compound CCCCCCCCCCCCCCCCP(=O)([O-])OCC[N+](C)(C)C 28.2

Try the compound O=c1c2c3c(sc2n2c(-c4ccc(Br)cc4)nnc2n1Cc1ccccc1)CCCC3 41.1

---

tested on: A549 NSCLC; assay: NCI tumour cell line growth inhibition, 48 h; in the data active = GI50 below about 0.43 µM; inactive = the rest
Bench note: report the call from t for active, f for inactive

Worked examples, 2 compounds total:
# COMPOUND, TARGET, ASSIGNED LABEL
records = [
    ("CCCn1c(N)c(C(=O)CNc2ccc(I)cc2)c(=O)[nH]c1=O", "A549 NSCLC", "f"),
    ("Cc1cc(S(=O)(=O)Nc2nc3cc(Cl)ccc3o2)c(SCc2ccccc2)cc1Cl", "A549 NSCLC", "f"),
]

Each compound tested received a call. Report the one for CCc1nc(-n2c(-c3ccccc3)nc3ccccc3c2=O)nc(N)c1-c1ccc(Cl)cc1 . f

Try the compound O=C(NCCCCOCC#Cc1ccccc1C#CCS(=O)(=O)c1ccccc1)c1cc2ccccc2[nH]1 f

Try the compound CCCCOc1ccc(/C=N/Nc2cc(C)nc3ccc(Cl)cc23)cc1 f

Try the compound COc1cc([C@@H]2c3cc4c(cc3C(OC3O[C@@H]5COC(C)O[C@H]5[C@H](O)[C@H]3O)C3COC(=O)[C@@H]32)OCO4)cc(OC)c1O (some centres undefined) t

Try the compound CCOC(=S)SCN1C(=O)c2ccccc2S1(=O)=O f

Try the compound CN1CCN(CCOc2ccc(-c3cnc4c(-c5ccc(F)cc5)cnn4c3)cc2)CC1 f

Try the compound CCOC(=O)Cc1csc(NC(=O)COC(=O)c2ccc(OC)cc2)n1 f

Try the compound CC[C@H](NC(=O)[C@H](CS(=O)(=O)CC1CC1)N[C@@H](c1ccc(F)cc1)C(F)(F)F)C(=O)C(=O)NC1CC1 f

Try the compound COC(=O)[C@]12CC[C@@H](C)[C@H](C)[C@@H]1C1=CC[C@@H]3[C@@]4(C)CC(=O)[C@H](OC(=O)c5ccco5)[C@@]5(C)COC(=C45)C[C@@]3(C)[C@]1(C)CC2 f

Try the compound CC(=O)N1CCN(CCOc2ccc(C3CCN(C4=Nn5c(nnc5C(F)(F)F)CC4)CC3)cc2)CC1 f

Try the compound OC(COc1cccc2ccccc12)CN1CCN(c2ccccc2Cl)CC1 (centres undefined) f

Try the compound O=C1c2ccn(CCCCN3CCC(O)CC3)c2C(=O)c2c1c(O)c1ccccc1c2O f

---

tested on: COLO 205 colon; test: NCI tumour cell line growth inhibition, 48 h
METRIC NAME: TGI (µM)
Give the number; µM is assumed, so skip it.

Below, each entry is followed by its recorded TGI result.
# COMPOUND, TGI [µM]
rows = [
    ("O=P1(c2ccccc2)C2=CCC=CC2C(c2ccccc2)N1Cc1ccccc1 (configuration not stated)", 29),
    ("CC[C@H](C)C1=C(OC(C)=O)[N@+]2([O-])Oc3ccc(-c4c(OC(C)=O)c(OC(C)=O)c(-c5ccc(OC(C)=O)cc5)c(OC(C)=O)c4OC(C)=O)cc3O[C@]2([C@@H](C)CC)C(=O)N1OC(C)=O", 15.8),
    ("COc1cc([C@@H]2c3cc4c(cc3C[C@H]3COC(=O)[C@@H]32)OCO4)cc2c1OCO2", 0.0149),
]

Here's the next entry for you.
Query the reported TGI for COLO 205 colon; item: COCCNC1CCC2(SCCS2)c2[nH]c3ccccc3c21 (configuration not stated) 82.5

---

tested on: HS 578T breast; test: NCI tumour cell line growth inhibition, 48 h
The following molecules are listed with their measured TGI values.

# MOLECULE, TGI
data = [
    ("OCC(O)C(O)C(O)C(O)/C=N/Nc1nc(O)c(/C=C2\\C=Nc3ccccc32)[nH]1 (stereo unspecified)", "> 100 µM"),
    ("C1CC[N-]CC1.CC(=N\\O)/C(C)=N/O.CC(=N\\O)/C(C)=N/O.[CH2-]CCN1CCOCC1.[Co+2]", "> 100 µM"),
    ("OC(CN1CCCCC1)c1ccc(/C=C/c2ccc(Cl)cc2)cc1 (stereo unspecified)", "> 100 µM"),
    ("CC(=O)OCC1OC(N2C(S)=C(C#N)C(c3ccco3)C(C(C)=O)=C2c2ccccc2)C(OC(C)=O)C(OC(C)=O)C1OC(C)=O (stereo unspecified)", "48.4 µM"),
]

Please report the recorded TGI for CCOC(=O)Cc1csc(NC(=O)COC(=O)c2ccc(OC)cc2)n1 . > 100 µM

Try the molecule COc1ccc(NC(=O)/C=C(C)/C=C/C=C(C)\C=C\C2=C(C)CCCC2(C)C)cc1 96.7 µM
